// provenance: patent US9085550B2

Target: GAL-hERRa (human ERRα ligand binding domain fused to GAL4 DNA binding domain) (Homo sapiens)
Construct: expressed in transfected cells; host or cells: CV-1
Sequence (P11474 193-421 limits assumed): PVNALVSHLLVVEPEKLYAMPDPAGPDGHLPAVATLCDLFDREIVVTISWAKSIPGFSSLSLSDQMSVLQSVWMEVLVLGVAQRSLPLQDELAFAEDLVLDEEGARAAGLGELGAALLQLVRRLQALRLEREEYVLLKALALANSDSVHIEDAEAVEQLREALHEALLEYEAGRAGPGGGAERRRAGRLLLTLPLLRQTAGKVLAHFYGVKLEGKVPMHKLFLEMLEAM
Test: GAL4 reporter transactivation assay in CV-1 cells, GAL-hERRa
Format: cell-based
Conditions: CV-1; reporter 0.42:vector 0.00875; no PGC-1a; 30 μM
EXPERIMENTAL_READOUT: Fold activation, GAL-hERRa (fold)

>>> df
                         compound_string  observed_measurement
0        Cc1cccc(C=NNC(=O)c2ccc(O)cc2)c1                  2.41
1           O=C(NN=Cc1ccccc1)c1ccc(O)cc1                  2.03
2        CCc1ccc(C=NNC(=O)c2ccc(O)cc2)s1                  1.74
3  CCN(CC)c1ccc(C=NNC(=O)c2ccc(O)cc2)cc1                  1.87

---

EXPERIMENTAL_READOUT: melting point (°C)

In [3]: df
Out[3]:
                                   molecule  unit_name  observed_measurement
0   Cc1cc(C=NNC(=O)c2ccc(O)cc2)oc1C [DY173]         °C                 251.4
1  O=C(NN=Cc1cccc(C(F)(F)F)c1Cl)c1ccc(O)cc1 [DY165]         °C                 261.5
2  Cc1[nH]c(C=NNC(=O)c2ccc(O)cc2)c(C)c1Br [DY172]         °C                 235.4

I. Cc1ccc(C=NNC(=O)c2ccc(O)cc2)s1 [DY166]
II. CCc1ccc(C=NNC(=O)c2ccc(O)cc2)o1 [DY175]
(Q) Param metric = melting point; output whichever of I , II has the minimum value. Identify your pick by its label.
(A) II
(II: 60.5 °C, I: 215.7 °C)

---

Target: HRHN-GAL (yeast GAL4 DNA binding domain without receptor sequences) (Saccharomyces cerevisiae, UniProt P04386)
Construct: expressed in transfected cells; host or cells: CV-1
Sequence (P04386 1-147): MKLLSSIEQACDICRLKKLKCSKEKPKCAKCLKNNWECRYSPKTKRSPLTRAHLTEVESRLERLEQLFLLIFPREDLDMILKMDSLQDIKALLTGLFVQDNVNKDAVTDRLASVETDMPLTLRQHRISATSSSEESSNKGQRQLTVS
Test: GAL4 reporter transactivation assay in CV-1 cells, control vector without receptor
Format: cell-based, monkey
Conditions: reporter 0.42:vector 0.00875, no PGC-1a, 30 μM
EXPERIMENTAL_READOUT: Fold activation, HRHN-GAL (fold)

Reference set, count: 2
>>> df
                                  compound  observed_measurement
0  CCc1ccc(C=NNC(=O)c2ccc(O)cc2)s1 [DY164]                  1.46
1     O=C(NN=Cc1ccccc1)c1ccc(O)cc1 [DY162]                  1.25

P. Cc1cccc(C=NNC(=O)c2ccc(O)cc2)c1 [DY159]
Q. CCN(CC)c1ccc(C=NNC(=O)c2ccc(O)cc2)cc1 [DY131]
(Q) Param metric = Fold activation, HRHN-GAL; output whichever of P , Q has the minimum value. Identify your pick by its label.
(A) Q

---

Target: GAL-mERRg (mouse ERRγ ligand binding domain fused to GAL4 DNA binding domain) (Mus musculus, UniProt P62509)
Construct: expressed in transfected cells; host or cells: CV-1
Sequence (P62509 233-457 limits assumed): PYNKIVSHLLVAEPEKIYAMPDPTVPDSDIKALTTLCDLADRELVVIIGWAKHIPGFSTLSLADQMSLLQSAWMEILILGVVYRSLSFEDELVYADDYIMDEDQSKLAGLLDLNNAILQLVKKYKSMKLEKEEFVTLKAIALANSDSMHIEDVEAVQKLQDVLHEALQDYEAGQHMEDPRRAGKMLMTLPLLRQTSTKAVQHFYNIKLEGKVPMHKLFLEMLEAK
Assay: GAL4 reporter transactivation assay in CV-1 cells, GAL-mERRg
Type: cell-based
Settings: CV-1; reporter 0.42:vector 0.00875; no PGC-1a; 30 μM
EXPERIMENTAL_READOUT: Fold activation, GAL-mERRg (fold)

Reference set, count: 2
                         compound_string        experimental_readout  observed_measurement
0  CCN(CC)c1ccc(C=NNC(=O)c2ccc(O)cc2)cc1  Fold activation, GAL-mERRg                  1.91
1           O=C(NN=Cc1ccccc1)c1ccc(O)cc1  Fold activation, GAL-mERRg                  1.59

I. Cc1cccc(C=NNC(=O)c2ccc(O)cc2)c1
II. CCc1ccc(C=NNC(=O)c2ccc(O)cc2)s1
(Q) Which record would sort first by descending Fold activation, GAL-mERRg, I or II ? Identify your pick by its label.
(A) II

---

Target: HRHN-GAL (yeast GAL4 DNA binding domain without receptor sequences) (Saccharomyces cerevisiae, UniProt P04386)
Construct: expressed in transfected cells; host or cells: CV-1
Test: GAL4 reporter transactivation assay in CV-1 cells, control vector without receptor
Assay type: cell-based, monkey
Conditions: reporter 0.42:vector 0.00875:PGC-1a 0.035, 30 μM
EXPERIMENTAL_READOUT: Fold activation, HRHN-GAL + PGC-1a (fold)

Reference set, count: 2
>>> df
                                   compound  unit_name  observed_measurement
0      O=C(NN=Cc1ccccc1)c1ccc(O)cc1 [DY162]       fold                  1.93
1  CCN(CC)c1ccc(C=NNC(=O)c2ccc(O)cc2)cc1 [DY131]       fold                  0.81

a. CCc1ccc(C=NNC(=O)c2ccc(O)cc2)s1 [DY164]
b. Cc1cccc(C=NNC(=O)c2ccc(O)cc2)c1 [DY159]
(Q) Param metric = Fold activation, HRHN-GAL + PGC-1a; output whichever of a , b has the minimum value. Identify your pick by its label.
(A) b
(b: 1.11 fold, a: 1.62 fold)

---

Molecular target: human ERα (Homo sapiens)
Construct: Human ERα and ERβ were examined as full-length proteins using an estrogen receptor responsive reporter construct; expressed in transfected cells; host or cells: CV-1
Sequence (P03372 1-595): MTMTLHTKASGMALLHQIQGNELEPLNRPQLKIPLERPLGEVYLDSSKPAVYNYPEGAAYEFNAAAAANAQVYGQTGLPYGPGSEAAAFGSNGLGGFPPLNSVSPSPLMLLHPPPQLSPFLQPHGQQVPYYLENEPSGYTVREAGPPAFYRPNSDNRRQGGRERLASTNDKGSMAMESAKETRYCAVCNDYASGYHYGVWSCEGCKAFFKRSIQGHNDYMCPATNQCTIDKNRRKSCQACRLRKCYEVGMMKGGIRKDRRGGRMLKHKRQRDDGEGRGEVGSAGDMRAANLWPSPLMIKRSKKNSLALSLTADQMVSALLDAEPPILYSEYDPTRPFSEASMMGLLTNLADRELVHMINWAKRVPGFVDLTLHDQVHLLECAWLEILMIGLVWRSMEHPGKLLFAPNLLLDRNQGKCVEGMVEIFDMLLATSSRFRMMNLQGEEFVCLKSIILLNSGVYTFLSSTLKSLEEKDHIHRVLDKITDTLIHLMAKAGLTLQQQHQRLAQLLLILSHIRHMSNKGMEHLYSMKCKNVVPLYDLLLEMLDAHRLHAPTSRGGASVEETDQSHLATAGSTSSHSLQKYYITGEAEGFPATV
Experiment: ERE-TK-luc reporter transactivation assay in CV-1 cells, full-length hERa
Format: cell-based
Conditions: Table 7; CV-1; drug conc 30 μM
EXPERIMENTAL_READOUT: Fold Activation, ERE-TK-luc, hERa (fold)

Reference set, count: 2
>>> print(df.to_string())
                                  compound               experimental_readout  observed_measurement
0     O=C(NN=Cc1ccccc1)c1ccc(O)cc1 [DY162]  Fold Activation, ERE-TK-luc, hERa                  1.74
1  Cc1cccc(C=NNC(=O)c2ccc(O)cc2)c1 [DY159]  Fold Activation, ERE-TK-luc, hERa                  1.59

1. CCN(CC)c1ccc(C=NNC(=O)c2ccc(O)cc2)cc1 [DY131]
2. CCc1ccc(C=NNC(=O)c2ccc(O)cc2)s1 [DY164]
(Q) Param metric = Fold Activation, ERE-TK-luc, hERa; output whichever of 1 , 2 has the minimum value. Identify your pick by its label.
(A) 1

---

EXPERIMENTAL_READOUT: melting point (°C)

                            compound_string  experimental_readout  unit_name  observed_measurement
0           Cc1cccc(C=NNC(=O)c2ccc(O)cc2)c1         melting point         °C                 241.9
1    O=C(NN=Cc1ccc(C(F)(F)F)cc1)c1ccc(O)cc1         melting point         °C                 260.5
2  Oc1nc(Cl)nc(NN=Cc2cc(C(F)(F)F)cc(C(F)(F)F)c2)n1         melting point         °C                 258.3
3  O=C(NN=Cc1ccc(C(F)(F)F)c([N+](=O)[O-])c1)c1ccc(O)cc1         melting point         °C                 279.6
4           CCc1ccc(C=NNC(=O)c2ccc(O)cc2)s1         melting point         °C                 194.5
5      Cc1cc(C)c(C=NNC(=O)c2ccc(O)cc2)[nH]1         melting point         °C                 261.2
